- ASSAY REMARKS: Ex vivo biodistribution in wild-type mice
- TEST CONTEXT: mouse, spleen, total radioactivity, 75 min p.i., ex vivo gamma counting, + AMD3100 5 mg/kg, mean ± SD, n: PentixaFor 1, 18F 2, 68Ga 4, 177Lu 3, read-out: spleen uptake
Non-standard residues stand in square brackets, D forms with d. Residues, ends and D or L forms follow the SMILES beside them. Groups on a side chain read outwards from the residue. *: point of attachment. DOTA = O=C(O)CN1CCN(CC(=O)O)CCN(CC(=O)*)CCN(CC(=O)O)CC1; 2Nal = N[C@@H](Cc1ccc2ccccc2c1)C(=O)O; dNMeOrn = CN[C@H](CCCN)C(=O)O; 4Amb = NCc1ccc(C(=O)O)cc1

COMPOUND	SUV at 1.25 h
CN1C(=O)[C@@H](Cc2ccc(O)cc2)NC(=O)CNC(=O)[C@H](Cc2ccc3ccccc3c2)NC(=O)[C@H](CCCNC(=N)N)NC(=O)[C@H]1CCCNC(=O)c1ccc(CNC(=O)CN2CCN(CC(=O)O)CCN(CC(=O)O)CCN(CC(=O)O)CC2)cc1 [[^68Ga]PentixaFor, metal not drawn] (cyclo([dY][dNMeOrn]([4Amb-DOTA])R[2Nal]G))	0.3 SUV

====

- ASSAY REMARKS: Ex vivo biodistribution in wild-type mice
- TEST CONTEXT: mouse, lungs, total radioactivity, 75 min p.i., ex vivo gamma counting, tracer alone, mean ± SD, n: PentixaFor 3, 18F 5, 68Ga 4, 177Lu 3, read-out: lungs uptake
Non-standard residues stand in square brackets, D forms with d. Residues, ends and D or L forms follow the SMILES beside them. Groups on a side chain read outwards from the residue. *: point of attachment. DOTA = O=C(O)CN1CCN(CC(=O)O)CCN(CC(=O)*)CCN(CC(=O)O)CC1; 2Nal = N[C@@H](Cc1ccc2ccccc2c1)C(=O)O; dNMeOrn = CN[C@H](CCCN)C(=O)O; 4Amb = NCc1ccc(C(=O)O)cc1

COMPOUND	SUV at 1.25 h [SUV]
CN1C(=O)[C@@H](Cc2ccc(O)cc2)NC(=O)CNC(=O)[C@H](Cc2ccc3ccccc3c2)NC(=O)[C@H](CCCNC(=N)N)NC(=O)[C@H]1CCCNC(=O)c1ccc(CNC(=O)CN2CCN(CC(=O)O)CCN(CC(=O)O)CCN(CC(=O)O)CC2)cc1 [[^68Ga]PentixaFor, metal not drawn] (cyclo([dY][dNMeOrn]([4Amb-DOTA])R[2Nal]G))	0.7

====

- ASSAY REMARKS: Ex vivo biodistribution in wild-type mice
- TEST CONTEXT: mouse, brain, total radioactivity, 75 min p.i., ex vivo gamma counting, tracer alone, mean ± SD, n: PentixaFor 3, 18F 5, 68Ga 4, 177Lu 3, read-out: brain uptake
Non-standard residues stand in square brackets, D forms with d. Residues, ends and D or L forms follow the SMILES beside them. Groups on a side chain read outwards from the residue. *: point of attachment. DOTA = O=C(O)CN1CCN(CC(=O)O)CCN(CC(=O)*)CCN(CC(=O)O)CC1; 2Nal = N[C@@H](Cc1ccc2ccccc2c1)C(=O)O; dNMeOrn = CN[C@H](CCCN)C(=O)O; 4Amb = NCc1ccc(C(=O)O)cc1

COMPOUND	UNIT OF MEASURE	SUV at 1.25 h
CN1C(=O)[C@@H](Cc2ccc(O)cc2)NC(=O)CNC(=O)[C@H](Cc2ccc3ccccc3c2)NC(=O)[C@H](CCCNC(=N)N)NC(=O)[C@H]1CCCNC(=O)c1ccc(CNC(=O)CN2CCN(CC(=O)O)CCN(CC(=O)O)CCN(CC(=O)O)CC2)cc1 [[^68Ga]PentixaFor, metal not drawn] (cyclo([dY][dNMeOrn]([4Amb-DOTA])R[2Nal]G))	SUV	0.03

Ref: paper PMC8537445
